# Tested on: BT-474
# assayExplanation: Cytotoxicity against human BT-474 cells assessed as inhibition of cell growth measured for 24 hrs by MTT assay
# Assay type: functional, cell-based
# conditionDetails: BT-474, 24 h
Entries and their IC50 values follow.

structureSmilesString | testSystem | qual | IC50 [µM]
COc1ccc(/C=C(/C(=O)OCc2cn(CC(=O)c3ccc(C)cc3)nn2)c2ccc(OC)c(OC)c2)cc1OC | BT-474 | = | 40.7
COc1ccc(/C=C(/C(=O)OCc2cn(CC(=O)c3ccc(Cl)c(Cl)c3)nn2)c2ccc(OC)c(OC)c2)cc1OC | BT-474 | = | 47.5
COc1ccc(/C=C(/C(=O)OCc2cn(Cc3ccc(F)cc3)nn2)c2ccc(OC)c(OC)c2)cc1OC | BT-474 | = | 17.1
COc1ccc(/C=C(/C(=O)OCc2cn(Cc3ccccc3)nn2)c2ccc(OC)c(OC)c2)cc1OC | BT-474 | = | 14.9
COc1ccc(/C=C(/C(=O)OCc2cn(Cc3ccc(Br)cc3)nn2)c2ccc(OC)c(OC)c2)cc1OC | BT-474 | = | 20.7
COc1ccc(/C=C(/C(=O)OCc2cn(CC(=O)c3ccc(Cl)c(Cl)c3)nn2)c2ccc3c(c2)OCO3)cc1OC | BT-474 | > | 50
COc1ccc(/C=C(/C(=O)OCc2cn(Cc3ccccc3[N+](=O)[O-])nn2)c2ccc(OC)c(OC)c2)cc1OC | BT-474 | = | 40.8
COc1ccc(/C=C(/C(=O)OCc2cn(Cc3cccc(Cl)c3)nn2)c2ccc(OC)c(OC)c2)cc1OC | BT-474 | > | 50
